system: CAKI-1 renal; assay: NCI-60 one-dose screen, 48 h (100 = growth as untreated, 0 = no growth, -100 = all killed); conditions: 10 µM unless noted
This is part of a sample that, as a whole, favours compounds with a hit. Of some 83,000 tested, about 20% had one in any assay.
result_type: growth (%)
Express it in %; write the number only.

COc1ccc(-n2cnc3cc(C(=O)N4CCCCC4)ccc32)cc1    98.5
Cc1nn2c(/C=C3/C(=O)Nc4cc(Cl)ccc43)c(-c3ccccc3)nc2s1    -50.4
O=C(NC1CCS(=O)(=O)C1)c1ccc(C(=O)c2ccccc2)cc1 (stereo unspecified)    98.2

Query block: Requested field: growth. Item: CCN1CCN(c2nc(NNC(=O)Cc3ccccc3)nc(N3CCN(C(c4ccccc4)c4ccccc4)CC3)n2)CC1
Result block: 39.5

Query block: // repeat for Oc1c(N=Nc2nn[nH]n2)ccc2ccccc12 and report
Result block: 98.2

Query block: // repeat for CCCCc1ccc(C(N)=O)nc1 and report
Result block: 102

###

test system: HCT-15 colon; experiment: NCI-60 one-dose screen, 48 h (100 = growth as untreated, 0 = no growth, -100 = all killed); conditions: 10 µM unless noted
The panel holds about 83,000 compounds, 20% with a hit somewhere; the sample as a whole holds those more often. Activity calls are given as the source filed them. Rule for the calls: active = growth percent below 10; inactive = the rest.
growth values, listed per item

Consider the reported growth for these compounds:
O=C(N/N=C/c1cccc(O)c1)c1ccc(C(F)(F)F)nc1Nc1cccc(C(F)(F)F)c1    11.5% (inactive)
Cc1nn(-c2nc3ccccc3s2)c(C)c1Oc1ccccc1O    29.4% (inactive)
Cc1ccccc1NC(=O)N/C(N)=N/c1nc2ccccc2s1    20.2% (inactive)
CC(=O)O[C@H]1CC[C@@]2(C)C(=CC[C@@H]3[C@@H]2CC[C@]2(C)C(c4cccnc4)=CC[C@@H]32)C1    51.4% (inactive)
O=C(CC1Sc2ccccc2NC1=O)NNc1cccc(Cl)c1Cl (stereo not given)    97.1% (inactive)

Query block: Observed growth on HCT-15 colon for COc1cc(/C=C/C(=O)c2c(C)n([O-])c3ccc(Cl)cc3[n+]2=O)cc(OC)c1OC , please.
Result block: 59% (inactive)

Query block: // repeat for Cn1cnc([N+](=O)[O-])c1Sc1nc(N)nc2nc[nH]c12 and report
Result block: 50.3% (inactive)

###

system: A549/ATCC NSCLC; test: NCI-60 one-dose screen, 48 h (100 = growth as untreated, 0 = no growth, -100 = all killed); conditions: 10 µM unless noted
The panel holds about 83,000 compounds, 20% with a hit somewhere; the sample as a whole holds those more often. Calls of active or inactive are those of the source. How the source made its calls: active means growth percent below 10; inactive means the rest.
growth values, listed per item

Consider the reported growth for these compounds:
N/C(=N\C(N)=N\c1nc2ccccc2s1)c1ccnc(Cl)c1    47.4% (inactive)
CC1C(C)N(C(=O)CCl)c2ccccc2N1C(=O)CCl (configuration not stated)    38.4% (inactive)
COc1cc(/C=C/C(=O)c2c(C)n([O-])c3ccc(Cl)cc3[n+]2=O)cc(OC)c1OC    71.7% (inactive)
O=C(NN1C(=O)c2cc(C(=O)O)c(C(=O)O)cc2C1=O)c1ccncc1    119% (inactive)
COc1ccc(-c2cnc(SCC(=O)Nc3ccc(-c4nc5ccccc5s4)cc3)n2-c2ccc(OC)cc2)cc1    101% (inactive)

Query block: Requested field: growth. Item: O=c1sc2ncnc3ncn1c32
Result block: 104% (inactive)

Query block: // repeat for CCCCCCCCCCNCCSS(=O)(=O)O and report
Result block: 69.7% (inactive)

Query block: // repeat for O=c1ccn(C2CC=C(CO)O2)c(=O)[nH]1 (configuration not stated) and report
Result block: 106% (inactive)

Query block: // repeat for COc1ccc(CCN2C(=O)CCC3=C2CCCC3=O)cc1OC and report
Result block: 106% (inactive)

Query block: // repeat for CCOc1cc(CCNS(=O)(=O)c2ccc(C)cc2)c(C(C)=O)cc1OCC and report
Result block: 74.8% [100 µM] (inactive)

Query block: // repeat for CC1CC=CCC1C1OCC(C)(C)CO1 (configuration not stated) and report
Result block: 96.7% (inactive)

Query block: // repeat for [N-]=[N+]=NCc1cccc(/C(O)=C/C(=O)C(=O)O)c1 and report
Result block: 93.6% (inactive)

Query block: // repeat for Nc1ccc2c(c1Br)Cc1ccccc1-2 and report
Result block: 86% (inactive)

Query block: // repeat for COc1cccc(N2CCN(CC(=O)N3CCN(c4nnc(-c5ccc(Cl)cc5)c(-c5ccc(Cl)cc5)n4)CC3)CC2)c1 and report
Result block: -1.64% (active)

Query block: // repeat for Nc1nc(NC2CC2)c2ncn(C3C=CC(CO)C3)c2n1 (configuration not stated) and report
Result block: 108% (inactive)

Query block: // repeat for Cc1ccc(C2=Nc3c(ccc4c(C)c(C)c(=O)oc34)OC2)cc1 and report
Result block: 99.5% (inactive)

Query block: // repeat for CCOC(=O)c1sc(NC(=O)COc2cccc(/C=C3\Cc4ccc(Cl)cc4C3=O)c2)nc1C and report
Result block: 107% (inactive)

###

system: BT-549 breast; experiment: NCI-60 one-dose screen, 48 h; conditions: 10 µM unless noted
This is part of a sample that, as a whole, favours compounds with a hit. Of some 83,000 tested, about 20% had one in any assay. Activity calls are given as the source filed them. Rule for the calls: active = growth percent below 10; inactive = the rest.
Returns: one label drawn from active, inactive

Example results:
O=C(CN1CCN(c2ccc(Cl)cc2)CC1)N1CCN(c2nnc(-c3ccc(Cl)cc3)c(-c3ccc(Cl)cc3)n2)CC1    inactive
COc1cc2c(cc1OC)C(CC1(O)CCCCC1)N(S(=O)(=O)c1ccc(C)cc1)CC2 (configuration not stated)    active
COc1cc(C2CC(C3C(=O)N(C)C(=O)N(C)C3=O)=NN2C=O)cc(OC)c1OC (configuration not stated)    inactive
O=C(O)C1C(c2ccccc2)c2ccccc2C(O)C1CO (configuration not stated)    inactive
ICCC(c1ccccc1)(c1ccccc1)c1ccccc1    inactive

Query block: Hi team, can someone confirm the assay call for C=CCN(/C=C/CN(CC=C)CC=C)CC=C ?
Result block: inactive

Query block: // repeat for O=C(CC1Sc2ccccc2NC1=O)NNc1cccc(Cl)c1Cl (configuration not stated) and report
Result block: inactive

Query block: // repeat for O=c1c2c(=NCCCN3CCCC3)cc3c(=O)n(CCCN4CCCC4)c(=O)c4c(NCCCN5CCCC5)cc(c(O)n1CCCN1CCCC1)c2c4-3 and report
Result block: active

Query block: // repeat for O=C(Nc1nc(-c2ccc(Cl)cc2)cs1)c1cc(-c2ccc(Br)cc2)nc2ccc(Cl)cc12 and report
Result block: active

Query block: // repeat for C(=C1c2ccccc2-c2ccccc21)c1ccncc1 and report
Result block: inactive

Query block: // repeat for CC(C)=CCNc1ncnc2c1ncn2C1OC(COP(=O)(O)O)C(O)C1O (configuration not stated) and report
Result block: active

Query block: // repeat for CCOC(=O)c1sc(NC(=O)COc2cccc(/C=C3\CCc4cc(OC)ccc4C3=O)c2)nc1C and report
Result block: active

Query block: // repeat for O=C(Oc1cccc2ccccc12)c1ccccc1C(=O)c1ccccc1 and report
Result block: inactive

Query block: // repeat for CCCCCCCC[Si](OCC)(OCC)OCC and report
Result block: inactive

Query block: // repeat for CC[C@@H](c1ccc(O)c(O)c1)[C@@H](CC)c1ccc(O)c(O)c1 and report
Result block: inactive

Query block: // repeat for O=C1/C(=C\c2coc3ccccc3c2=O)c2ccccc2N1c1c(Cl)cccc1Cl and report
Result block: inactive

Query block: // repeat for COc1c(Br)cc(C(c2cc(Br)c(OC)c(Br)c2)c2ccccc2C(=O)O)cc1Br and report
Result block: inactive

Query block: // repeat for CC(C)Sc1nc(Cl)c(C#N)c(-c2ccc(F)cc2)n1 and report
Result block: inactive

Query block: // repeat for Cn1cc(NC(=O)Nc2cc(C(=O)O)n(C)c2)cc1C(=O)O and report
Result block: inactive

###

growth values, listed per item
tested on: NCI-H226 lung; assay: NCI-60 one-dose screen, 48 h (100 = growth as untreated, 0 = no growth, -100 = all killed); details: 10 µM unless noted
The panel holds about 83,000 compounds, 20% with a hit somewhere; the sample as a whole holds those more often.
Express it in %; write the number only.

COc1cc(NC(C)CCCN)c2nc(C)ccc2c1Oc1ccc(F)cc1 (stereo not given)    84.9
Oc1ccc(/C=N/Nc2nc3ccccc3s2)c(O)c1    45
COc1ccc(C(=O)COc2cccc(/C=C3\CSc4ccc(Cl)cc4C3=O)c2)cc1    75.1
Fc1ccc(-c2nn3c(-c4cc(C(F)(F)F)cc(C(F)(F)F)c4)nnc3s2)cc1    6.11

Query block: Observed growth on NCI-H226 lung for CC(=O)Nc1cc(C(c2ccccc2)c2ccccc2)cc(C(c2ccccc2)c2ccccc2)c1C , please.
Result block: 55.6

Entry source: PubChem BioAssay (NCI)
